Where do the numbers come from? From patent US20110064740A1.

Assay system: T1, human Aβ peptide (1-40) biotinylated at the C terminus (human, UniProt P05067 672-711, biotinylated at the C-terminus)
T1 construct: domain: β-amyloid peptide (1-40); Numbers 1-40 count on the β-amyloid peptide, not on APP; also called beta-amyloid 1-40 peptide (biotinylated at the C-terminus); streptavidin-captured beta-amyloid (1-40)
T1 sequence (P05067 672-711 limits assumed): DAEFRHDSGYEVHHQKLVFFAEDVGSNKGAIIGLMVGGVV
Measurement description: SPR Biacore 3000, Method A(i): C-terminally biotinylated β-amyloid 1-40 on streptavidin chip, antibody as analyte; Run 1
Procedure: (i) Briefly, <20 resonance units of beta-amyloid 1-40 peptide (biotinylated at the C-terminus) were captured on a streptavidin biosensor chip (as used for Table 10A). The antibodies were diluted down in HBS-EP buffer and passed over the streptavidin/beta-amyloid surface at concentrations ranging from 0.001 nM-8 nM (for Table 10A). Two separate runs were carried out; each run was carried out on a new streptavidin/beta-amyloid surface. […]
Result type: pKd
// pKd here means minus log10 of the molar concentration (mol/L)

Consider the binder Humanised 2E7 variant H3L1 (antibody, human IgG1, kappa, V domains shown, Human IgG1 with L235A and G237A, human kappa; also called L1+H3) VH: EVQLVESGGGLVQPGGSLRLSCAASGFTFSDNGMAWVRQAPGKGLEWISFISNLAYSIDYADTVTGRFTISRDNAKNSLYLQMNSLRAEDTAVYYCVSGTWFAYWGQGTLVTVSS VL: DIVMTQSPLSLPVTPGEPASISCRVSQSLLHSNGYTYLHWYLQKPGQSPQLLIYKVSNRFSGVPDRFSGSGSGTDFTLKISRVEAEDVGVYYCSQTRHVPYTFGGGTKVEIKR and give its measured pKd.
10.12

Suppose we examine the binder Mouse monoclonal antibody 2E7 (antibody, mouse IgG2a, V domains shown, Murine IgG2a heavy chain, murine kappa light chain; also called 2E7 MAb; parental mouse 2E7 MAb) VH: EVKLVESGGGLVQPGGSLKLSCAVSGFTFSDNGMAWVRQAPRKGPEWIAFISNLAYSIDYADTVTGRFTISRDNAKNTLYLEMSSLRSEDTAMYYCVSGTWFAYWGQGTLVTVSA VL: DVVLTQTPLSLPVSLGDQASISCRVSQSLLHSNGYTYLHWYLQKPGQSPKLLIYKVSNRFSGVPDRFSGSGSGTDFTLKISRVEAEDLGVYFCSQTRHVPYTFGGGTKLEIK ; what pKd value has been reported?
10.42
